Experiment: Particle size distribution and specific surface area (LS 200, Small Volume Module, Fraunhofer optical model)
Format: physicochemical
Settings: Particle Diameter (Lower) 1.149 μm
Source text: FIG. 2 depicts and the data below tabulate for Sample 1 the arithmetic statistics describing surface area, particle size, and cumulative volume characteristics for one lot of drug substance (feed material). The particle size distribution for this lot is depicted in FIG. 2. Table 11 A-D tabulates the arithmetic statistics describing surface area, particle size, and cumulative volume characteristics for three lots of drug substance (feed material). […]
Consider the following compounds; for each one, report its Diff. Volume %.
Give bare numbers, in %.

O=C(O)CCNC(=O)c1ccc(/N=N/c2ccc(O)c(C(=O)O)c2)cc1 [Feed Powder Sample B (#41.$02)]	1.94
O=C(O)CCNC(=O)c1ccc(/N=N/c2ccc(O)c(C(=O)O)c2)cc1 [Feed Powder Sample A (#35.$01)]	4.90

Now for a further compound.
(Q) // lookup Diff. Volume % for O=C([O-])CCNC(=O)c1ccc(/N=N/c2ccc(O)c(C(=O)[O-])c2)cc1.[Na+].[Na+] [Sample 2]
(A) 9.37
